Entry source: patent US10398751B2

Assay: Pharmacokinetics of IR formulations in minipigs
Assay type: in vivo
Details: minipig, plasma, sc, 0.4 mg/kg, minipigs, IR, SC 0.4 mg/Kg; DEX:PEP 5:1 saline
MEASUREMENT LABEL: AUC(0-t) (ng·h/mL)
Kindly answer with a numeric value in ng·h/mL, unit omitted.

compound C[C@@H](O)[C@@H]1NC(=O)[C@H](CCCCN)NC(=O)[C@@H](Cc2c[nH]c3ccccc23)NC(=O)[C@H](Cc2c[nH]c3ccccc23)NC(=O)[C@H](Cc2ccccc2)NC(=O)CCCNC(=O)CCCN(CC(N)=O)C(=O)[C@H](Cc2ccccc2)NC1=O [Veldoreotide Acetate] , AUC(0-t) observed: 205

---

Assay: Quantitative assessment of veldoreotide acetate solubility by HPLC
Type: physicochemical
Details: water; read-out: Solubility (g/liter) - HPLC
MEASUREMENT LABEL: solubility (g/L)
Return type: number; implicit unit g/L.

# solubility of C[C@@H](O)[C@@H]1NC(=O)[C@H](CCCCN)NC(=O)[C@@H](Cc2c[nH]c3ccccc23)NC(=O)[C@H](Cc2c[nH]c3ccccc23)NC(=O)[C@H](Cc2ccccc2)NC(=O)CCCNC(=O)CCCN(CC(N)=O)C(=O)[C@H](Cc2ccccc2)NC1=O [Veldoreotide Acetate] = 234

---

Experiment: Solubility screening of veldoreotide acetate (10 mg, incremental volumes of medium, USP definition)
Type: physicochemical
Details: water for injection (WFI-USP), 10 mg in WFI-USP (water for injection); read-out: 0.01 ml Very soluble (1 g/ml)
MEASUREMENT LABEL: solubility

For this compound ( C[C@@H](O)[C@@H]1NC(=O)[C@H](CCCCN)NC(=O)[C@@H](Cc2c[nH]c3ccccc23)NC(=O)[C@H](Cc2c[nH]c3ccccc23)NC(=O)[C@H](Cc2ccccc2)NC(=O)CCCNC(=O)CCCN(CC(N)=O)C(=O)[C@H](Cc2ccccc2)NC1=O [Veldoreotide Acetate] ), measured solubility is < 1000 mg/mL

---

Test: Solubility screening of veldoreotide acetate (10 mg, incremental volumes of medium, USP definition)
Format: physicochemical
Details: Dextrose 5% (USP), 10 mg in Dextrose 5% (USP); read-out: 0.01 ml Very soluble (1 g/ml)
MEASUREMENT LABEL: solubility

Looking up C[C@@H](O)[C@@H]1NC(=O)[C@H](CCCCN)NC(=O)[C@@H](Cc2c[nH]c3ccccc23)NC(=O)[C@H](Cc2c[nH]c3ccccc23)NC(=O)[C@H](Cc2ccccc2)NC(=O)CCCNC(=O)CCCN(CC(N)=O)C(=O)[C@H](Cc2ccccc2)NC1=O [Veldoreotide Acetate] , I see its solubility listed as < 1000 mg/mL

---

Assay: Pharmacokinetics of IR formulations in minipigs
Assay type: in vivo
Conditions: minipig, plasma, sc, 0.4 mg/kg, minipigs, IR, SC 0.4 mg/Kg; HPB:PEP 15:1 saline
MEASUREMENT LABEL: Tmax (min)
Hi! Could you send only the number? It should be in min, unit omitted.

Entry C[C@@H](O)[C@@H]1NC(=O)[C@H](CCCCN)NC(=O)[C@@H](Cc2c[nH]c3ccccc23)NC(=O)[C@H](Cc2c[nH]c3ccccc23)NC(=O)[C@H](Cc2ccccc2)NC(=O)CCCNC(=O)CCCN(CC(N)=O)C(=O)[C@H](Cc2ccccc2)NC1=O [Veldoreotide Acetate] , Tmax reported as 15
